Could you please report measured pIC50 for the items listed next?
molecular target: human B1 (Homo sapiens, UniProt P46663); construct: host or cells: CHO-K1; test: Calcium flux assay for Bradykinin B1 antagonist, CHO-K1 cell line expressing human B1; assay type: cell-based; details: CHO-K1 cells expressing human B1, agonist Lys-(Des-Arg)-Bradykinin, read-out: Potency (IC50 value against human B1)
Sequence (P46663 whole entry): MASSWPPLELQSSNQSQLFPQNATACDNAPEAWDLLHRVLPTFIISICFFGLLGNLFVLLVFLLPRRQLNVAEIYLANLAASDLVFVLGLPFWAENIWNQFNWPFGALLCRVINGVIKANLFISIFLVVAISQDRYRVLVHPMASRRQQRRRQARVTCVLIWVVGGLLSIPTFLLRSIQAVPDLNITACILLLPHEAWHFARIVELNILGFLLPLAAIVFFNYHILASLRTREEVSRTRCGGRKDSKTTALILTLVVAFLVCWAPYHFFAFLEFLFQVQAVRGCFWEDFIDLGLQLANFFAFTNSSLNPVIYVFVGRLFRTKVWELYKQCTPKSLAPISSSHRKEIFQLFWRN
pIC50: −log10 of the molar value. Counter-ions that a name gives are not always drawn.

Quick note, pIC50 for COc1cc(C)c(S(=O)(=O)N(Cc2nc(C(=O)N(C)Cc3ccc(CN4CCC(C(=O)N(C)C)C4)cc3)co2)C2CC2)c(C)c1 (stereo not shown) landed at > 8.00

Quick note, pIC50 for "CN1CCC(CN2CCN(C(=O)c3coc(CN(C)S(=O)(=O)c4c(Cl)cccc4Cl)c3)CC2)CC1" landed at 6.00 to 7.00

Quick note, pIC50 for "COc1cc(C)c(S(=O)(=O)N(C)Cc2nnc(C(=O)N3CCN(Cc4c[nH]c(C)n4)CC3)o2)c(C)c1" landed at > 8.00

Quick note, pIC50 for "COc1cc(C)c(S(=O)(=O)N(C)Cc2cc(C(=O)N(C)Cc3ccc(-c4cncnc4)cc3)co2)c(C)c1" landed at 6.00 to 7.00

Quick note, pIC50 for "COc1cc(C)c(S(=O)(=O)N(Cc2cc(C(=O)NCCc3ccc(C4=NCCN4)cc3)co2)CC2CC2)c(C)c1" landed at 7.00 to 8.00

Quick note, pIC50 for COc1cc(C)c(S(=O)(=O)N(C)Cc2nnc(C(=O)N3CCN(CC4CCN(C5CCC5)CC4)CC3)o2)c(C)c1 [Ex 265, trifluoroacetate] landed at 6.00 to 7.00

Quick note, pIC50 for COc1cc(C)c(S(=O)(=O)N(Cc2cc(C(=O)NCc3cc(CN4CCCC4)ccc3F)co2)C2CC2)c(C)c1 [Ex 153, trifluoroacetate] landed at 6.00 to 7.00
